- tested.system: AβO (amyloid-beta oligomer)
- measurement.notes: fluorescence quenching titration (Cy5/BHQ3), LangmuirEXT1 fit
- condition.details: 25 °C; buffer not stated for the aptamer-only binding assays (AβO detection assay: 50 mM Tris-HCl pH 8, 10 mM MgCl2)
metric: pKd
# reply with the number alone; pKd is -log10 of concentration in mol/L

pKd on AβO (amyloid-beta oligomer) for TGACCAACGCCTGTGGTGTTGGGGCGGGTGCGGTTGGTCA [A4] is 8.12
